Reported IC50 by item:
# target or system: PLK1 (Homo sapiens, UniProt P53350)
# Construct: Full-length, active GST-PLK1 is purified from Sf9 insect cells; made in house; host or cells: Sf9 insect cells
# Sequence (P53350 whole entry): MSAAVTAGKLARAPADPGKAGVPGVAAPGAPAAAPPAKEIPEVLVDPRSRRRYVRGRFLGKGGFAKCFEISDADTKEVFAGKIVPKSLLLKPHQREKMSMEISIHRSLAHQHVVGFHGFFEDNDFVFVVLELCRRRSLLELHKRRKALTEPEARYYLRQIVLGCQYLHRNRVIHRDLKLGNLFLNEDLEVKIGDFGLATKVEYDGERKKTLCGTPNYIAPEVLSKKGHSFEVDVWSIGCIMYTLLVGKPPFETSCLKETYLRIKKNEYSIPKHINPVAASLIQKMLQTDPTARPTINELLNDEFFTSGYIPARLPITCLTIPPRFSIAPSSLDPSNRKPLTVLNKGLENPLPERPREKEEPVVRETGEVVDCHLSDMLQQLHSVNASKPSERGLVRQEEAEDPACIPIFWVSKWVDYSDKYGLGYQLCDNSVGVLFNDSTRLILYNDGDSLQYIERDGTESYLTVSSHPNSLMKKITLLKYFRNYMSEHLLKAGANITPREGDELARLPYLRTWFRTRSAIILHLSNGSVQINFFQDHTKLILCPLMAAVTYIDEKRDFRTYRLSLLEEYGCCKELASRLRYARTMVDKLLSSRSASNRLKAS
# protocol text: Biochemical Characterization Assay: HTRF kinase assay, GST-PLK1 phosphorylation of GST-p53
# conditions used: GST-PLK1, GST-p53 substrate, ATP

{"compound": "COc1cc(C(=O)NC2CCNCC2)ccc1Nc1ncc2c(n1)N(C1CCC1)CC(F)(F)C(=O)N2C [Example I-5]", "IC50": "1 to 50 nM"}

Enquiry: Can you look up the measured IC50 of COc1cc(C(=O)NCCN2CCCC2)ccc1Nc1ncc2c(n1)N(C1CCCC1)CC(F)(F)C(=O)N2C [Example I-45] for me?
Return: 1 to 50 nM

Enquiry: How about COc1cc(C(=O)NCC(C)(C)CN(C)C)ccc1Nc1ncc2c(n1)N(C1CCCC1)CC(F)(F)C(=O)N2C [Example I-60] ?
Return: 1 to 50 nM

Enquiry: How about COc1cc(C(=O)NC2CCN(Cc3ccccc3)CC2)ccc1Nc1ncc2c(n1)N(C1CCCC1)CC(F)(F)C(=O)N2C [Example I-122] ?
Return: 1 to 50 nM

Enquiry: How about O=C(NC1CCOCC1)c1ccc(Nc2ncc3c(n2)N(C2CCCC2)CC(F)(F)C(=O)N3)cc1 [Example I-136] ?
Return: 500 to 5000 nM

Enquiry: How about COc1cc(C(=O)NC(C)C)ccc1Nc1ncc2c(n1)N(C1CCCC1)CC(F)(F)C(=O)N2C [Example I-25] ?
Return: 1 to 50 nM

Enquiry: How about COCCNC(=O)c1ccc(Nc2ncc3c(n2)N(C2CCCC2)CC(F)(F)C(=O)N3C)c(OC)c1 [Example I-28] ?
Return: 1 to 50 nM
